Biological target: Ghrelin receptor (Homo sapiens)
Sequence (Q92847 whole entry): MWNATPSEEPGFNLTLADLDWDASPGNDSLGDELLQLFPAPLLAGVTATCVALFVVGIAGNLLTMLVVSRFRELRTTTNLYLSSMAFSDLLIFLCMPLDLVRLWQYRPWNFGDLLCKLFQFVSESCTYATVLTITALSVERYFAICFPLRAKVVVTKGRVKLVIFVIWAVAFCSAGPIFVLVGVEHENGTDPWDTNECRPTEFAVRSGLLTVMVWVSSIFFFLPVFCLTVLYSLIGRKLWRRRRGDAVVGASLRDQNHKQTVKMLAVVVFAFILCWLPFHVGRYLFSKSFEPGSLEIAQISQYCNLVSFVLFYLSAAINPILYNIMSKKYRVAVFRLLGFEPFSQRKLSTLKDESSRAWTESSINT
Experiment: Receptor Selection and Amplification Technology (R-SAT) assay
Format: cell-based
Design: expressed in transfected cells; host or cells: NIH3T3
Settings: negative logarithm of ligand concentration causing 50% inhibition of constitutive receptor response; transfected NIH3T3 cells; '—' not defined (nd used separately); read-out: RSAT pIC50 (converted)
Below: a set of entries, each annotated with reported log10 IC50.
Reminder: these figures are log10 of reported IC50, in nM before transformation.

compound	log10 IC50
CC(=O)c1cn(CCCN2CCC(Oc3cccc(Cl)c3)CC2)c2c(C#N)cccc12	0.90
CC(C)CC(=O)c1cn(CCCN2C3CCC2CC(OCC2CC2)C3)c2ccccc12 (stereo not drawn)	2.20
CC(=O)c1cn(CCCN2CCC(Oc3cccc(Cl)c3)CC2)c2c(Cl)cccc12	1.30
CCCOC1CCN(CC(O)Cn2cc(C(C)=O)c3ccccc32)CC1 (stereo not drawn)	4.50
COc1cccc2c(C(C)=O)cn(CCCN3CCC(c4nc5ccccc5s4)CC3)c12 [drawing 280]	0.80
CC(C)CC(=O)c1cn(CCCN2CCC(C(=O)c3ccccc3)CC2)c2ccccc12	3.30
COc1cccc2c(C#N)cn(CCCN3CCN(c4ncc(C(F)(F)F)cc4Cl)CC3)c12	2.60
O=C(c1cn(CCCN2CCN(Cc3ccc(Cl)cc3Cl)CC2)c2ncccc12)C(F)(F)F	2.10

Return reported log10 IC50; argument: "COc1cccc2c(C(=O)NCC(C)C)cn(CCCN3CCC(c4nc(-c5ccncc5)no4)CC3)c12"
2.20

# lookup: log10 IC50 of CC(=O)c1c(C)n(CCCN2C3CCC2CC(CCc2ccc(Cl)cc2)C3)c2c(Br)cccc12 (stereo not drawn)
1.10

What value of measured log10 IC50 is listed for "CC(=O)c1cn(CCCN2CCCN(CCc3ccccc3)CC2)c2c(Cl)cccc12" ?
1.00

So what's the measured log10 IC50 for this one? "CCC(=O)c1cn(CCCN2CCC(c3ccccc3OC)CC2)c2ccccc12"
2.50

For the compound COc1cccc2c(C(C)=O)cn(CC(C)CN3CCN(Cc4ccc(Cl)cc4Cl)CC3)c12 (stereo not drawn) , what log10 IC50 is on record?
2.30

====

Molecular target: Ghrelin receptor (Homo sapiens)
Assay: Receptor Selection and Amplification Technology (R-SAT) assay
Assay type: cell-based
Set-up: expressed in transfected cells; host or cells: NIH3T3
Conditions: read-out: RSAT Eff(%)
quantity_name: Emax (%)
Note: unit % is implicit; provide only the numeric part.

Which Emax reading was recorded for the compound "COc1cccc2c(C(=O)c3ccccc3)cn(CCCNCCOc3ccccc3)c12" ?
74

Which value of Emax has been reported for COc1cccc2c(C(=O)Cc3ccccc3)cn(CCCN3CCCC(Cc4ccccc4Cl)C3)c12 (stereo not shown) in the records?
116

GET /values?readout=Emax&item= "CC(=O)c1cn(CCCN2[C@@H]3CC[C@H]2C[C@@H](Oc2ccc(Cl)cc2)C3)c2ccccc12"
107

# Emax lookup, item "COc1cccc2c(C(=O)c3ccccc3)cn(CCCN3CCC(C(=O)c4ccccc4)CC3)c12"
102

Need Emax of COc1cccc2c(C#N)cn(CCCN3C4CCC3CC(CCc3ccccc3)C4)c12 (stereo not shown) , thanks.
104

# Emax lookup, item "CCCCC(=O)c1cn(CCCN2CCC(C(=O)c3ccccc3)CC2)c2ccc(OC)cc12"
98

Returns the measured Emax for the input compound. Input: CCCCCC1CC2CCC(C1)N2CCCn1cc(C(C)=O)c2ccccc21 (stereo not shown)
104

Which Emax is listed for "COc1ccccc1C1CCN(CCn2cc(C(C)=O)c3ccccc32)CC1" ?
44

I am curious: what Emax value has been reported for "COc1cccc2c(C(=O)NCc3cccc(C)c3)cn(CCCN3CCC(Oc4ccc(F)cc4)CC3)c12" ?
81

Value lookup for Emax; key = "CC(=O)c1cn(CCCN2CCC(CCOc3ccc(Cl)cc3)CC2)c2c(Cl)cccc12"
53

Find the recorded Emax belonging to COc1cccc2c(C(=O)c3ccccc3)cn(CCCN3C4CCC3CC(CC(=O)c3ccccc3)C4)c12 (stereo not shown) and report it.
101
